Ref: ChEMBL document CHEMBL3988442

target: Ubiquitin-activating enzyme e1, putative (Leishmania donovani (strain BPK282A1))
assay explanation: Leishmania donovani Ubiquitin Activating Enzyme (LdE1)
Type: functional
Parameters: scale not given: direction of the effect not stated beside the values
condition set: 30 µM
Results with a measured potency or affinity are listed apart.
reported endpoint: Percent Effect (%)
Hi! Could you send only the number? It should be in %, unit omitted.

What Percent Effect value was documented for this compound, `CN(Cc1ccc(F)cc1)[C@@H]1CN(C(=O)c2cccs2)C[C@H]1O` ? 17.3

So what's the measured Percent Effect for this one? Cc1nccn1-c1cccc(C2CCCN(C(=O)c3cc[nH]n3)C2)n1 (stereo unspecified) 25.3

# get_value(readout='Percent Effect', item= c1cnnc(N2CCCC(NCc3nnc(-c4ccco4)o3)C2)c1 (stereo unspecified) ) 25.6

Look up Percent Effect for this compound: c1cnnc(N2CCCC(NCc3ccc(-n4ccnc4)cc3)C2)c1 (stereo unspecified) 2.6

Recorded Percent Effect for `CCS(=O)(=O)c1ccc(N2CCC(NC(=O)CCC(C)C)CC2)cc1` , please? 10.7

Which measured Percent Effect value corresponds to Cc1nc(C2CCCN2CC(=O)NCCc2ccsc2)no1 (stereo unspecified) ? 16.2

====

Assign Percent Effect to each entry below.
target: Tyrosyl-tRNA synthetase, putative (Trypanosoma cruzi (strain CL Brener)) (UniProt Q4DSP6)
Sequence (Q4DSP6 as listed by the source): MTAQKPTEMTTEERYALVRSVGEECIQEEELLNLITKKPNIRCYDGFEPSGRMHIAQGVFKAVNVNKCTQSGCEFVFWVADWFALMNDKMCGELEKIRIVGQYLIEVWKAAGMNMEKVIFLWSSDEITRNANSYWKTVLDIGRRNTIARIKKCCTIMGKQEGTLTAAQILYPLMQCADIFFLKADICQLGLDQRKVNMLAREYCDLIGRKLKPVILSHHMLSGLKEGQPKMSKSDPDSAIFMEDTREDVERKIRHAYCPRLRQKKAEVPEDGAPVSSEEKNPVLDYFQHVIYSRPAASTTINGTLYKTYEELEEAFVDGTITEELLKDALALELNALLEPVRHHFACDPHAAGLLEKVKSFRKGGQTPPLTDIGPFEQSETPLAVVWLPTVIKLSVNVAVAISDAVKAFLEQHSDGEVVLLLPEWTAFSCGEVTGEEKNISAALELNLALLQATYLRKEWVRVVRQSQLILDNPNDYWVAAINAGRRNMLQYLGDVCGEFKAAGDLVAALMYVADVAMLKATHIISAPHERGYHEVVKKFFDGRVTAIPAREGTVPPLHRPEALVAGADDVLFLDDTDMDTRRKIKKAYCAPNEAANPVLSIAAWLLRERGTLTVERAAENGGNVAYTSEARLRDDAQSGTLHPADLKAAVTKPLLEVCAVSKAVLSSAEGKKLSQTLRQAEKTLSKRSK
assay explanation: Trypanosoma cruzi tyrosyl tRNA synthetase (TcYRS) _High Tyrosine SOP; further: in the data most compounds retested in dose-response had high values
Format: functional
Design: scale not given: direction of the effect not stated beside the values
condition set: 30 µM
Hi! Could you send only the number? It should be in %, unit omitted.

Look at this molecule and give its reported Percent Effect. `CC(=O)N1CCO[C@@H]2CN(C(=O)c3cc(C)oc3C)CC[C@@H]2C1` 0

Requested field: Percent Effect. Item: Cc1occc1C(=O)NCc1ccc(N2CCCC(C(N)=O)C2)cc1 (stereo unspecified) 2.63

What value of measured Percent Effect is listed for COc1ccc(C2CC(=O)Nc3c2cnn3C2CCCC2)cc1 (stereo unspecified) ? 6.92

So what does the record say about Percent Effect for `O=C(NCCNc1ncccn1)Nc1cc(C(F)(F)F)c[nH]c1=O` ? 6.93

Field request: Percent Effect | item: `CC(=O)N1CCOC2(CCN(C(=O)c3cnoc3C)CC2)C1` 2.63

Which Percent Effect is listed for `Cc1nc[nH]c1CN1CCN(C(=O)CCC(F)(F)F)[C@H]2CS(=O)(=O)C[C@H]21` ? 7.98

Look up Percent Effect: `COC[C@@H]1CC[C@H]2[C@H](CCN2S(=O)(=O)c2ccc(F)cc2)O1` 4.74

Find the recorded Percent Effect belonging to `O=C(O)c1cc(-c2cccnc2)cc(S(=O)(=O)N2CCCCCC2)c1` and report it. 5.85

Recorded Percent Effect of Cc1ccn2cc(C(=O)N3CCCC3c3c(C)nn(C)c3C)nc2c1 (stereo unspecified) , please. 5.21

Please give the measured Percent Effect for this molecule: CC(C)Oc1ncccc1CNC(=O)C1CCCN(C(=O)C2CC2)C1 (stereo unspecified) 2.45

// returns reported Percent Effect for input `Cc1ccc(CN2CCC(c3nnc(CN4CCCCC4)n3C)CC2)o1` 1.6

====

target: AMP-activated protein kinase, AMPK (Homo sapiens) (UniProt P54646+O43741+P54619+Q9UGJ0+Q9Y478+Q13131+Q9UGI9)
assay explanation: AMP-dependent Kinase enzyme assay. An in vitro enzyme assay that detects ADP turnover that is directly proportional to AMPK activity. This uses naive AMPK that is activated during the assay with MK-8722
Format: functional
Set-up: scale not given: direction of the effect not stated beside the values
condition set: 30 µM
reported endpoint: Percent Effect (%)
Write down the numeric answer in % and omit the unit.

Reported Percent Effect, compound Cn1cc(C2CCCN2Cc2csc(-c3ccsc3)n2)cn1 (stereo unspecified) : ____ -11.2

Give its Percent Effect value. Item: `C[C@@H]1CN(C2(C(=O)N3CCCCCC3)Cc3ccccc3C2)C[C@H](C)O1` -6.6

Consider the compound shown here: `CCCNC(=O)CNc1cc(C(=O)N2CCSCC2)ccc1C` What is its recorded Percent Effect? -4.24

GET /values?readout=Percent Effect&item= `CN(C)c1cncc(C2CCN(C(=O)CO)CC2)n1` 7.38

// Percent Effect lookup, key: Cc1nccnc1CN1CCC2(CCCN(C3CCOCC3)C2=O)C1 (stereo unspecified) -4.08

Suppose we examine the compound Cc1ccc(C(=O)NC(CN2CCCC2=O)c2ccccc2)c(=O)[nH]1 (stereo unspecified) ; what Percent Effect value has been reported? -6.93

So what's the measured Percent Effect for this one? `Cc1ccc(C)c(-n2ccc3nc(N4CCCC4)ncc3c2=O)c1` 21.7

Requested field: Percent Effect. Item: `COCCCNC(=O)CN(C)C(=O)c1cc(C)ccc1O` -6.15

Dear colleague, I am looking for the recorded Percent Effect of the following compound: `Cc1nn(C)c(C)c1CNCc1ccc(N2CCOCC2)nc1` 6.09

Data request, read-out Percent Effect, for `Cc1nc(N2CCN(C(=O)C(C)(C)C)CC2)cc(-n2cnc(C)c2C)n1` 2.15

Percent Effect for Cc1nc(C2CCCN2CCCS(=O)(=O)N(C)C)no1 (stereo unspecified) ? -4.98
